Origin of the recorded values: patent US20220177594A1

target: T1, ANTIBODY EXPRESSION CONTROL; experiment: SPR Biacore, expression control
T1 construct: also called mouse anti-canine antibody (capture reagent of the expression control ELISA)
Category scheme (Kd): low band (below 200 pM), middle band (200 pM to below 300 pM), high band (300 pM or more)

Binder	Qualitative label
Mu_02D09_VH (SEQ ID NO: 31)_D102A (antibody, V domains shown) VH: EVQLVESGGGLVKPGGSLTLSCAASGFTFSDYGMHWLRQAPEKGLEWVAYISSGSRAVFFADTVKGRFTISRDNAKNTLFLQMTSLRSDDTAMYYCARDRYAGRGFAYWGQGTLVTVSA VL: DIVLTQSPATLSVTPGDSVSLSCRASQSISNNLHWYQQTSHESPRLLITYASQSISGIPSRFSGSGSGTDFTLSINSVETEDFGMYFCQQSNSWPLTFGAGTKLELKR	high band
Mu_02D09_VH (SEQ ID NO: 31)_D62A (antibody, V domains shown) VH: EVQLVESGGGLVKPGGSLTLSCAASGFTFSDYGMHWLRQAPEKGLEWVAYISSGSRAVFFAATVKGRFTISRDNAKNTLFLQMTSLRSDDTAMYYCARDRYDGRGFAYWGQGTLVTVSA VL: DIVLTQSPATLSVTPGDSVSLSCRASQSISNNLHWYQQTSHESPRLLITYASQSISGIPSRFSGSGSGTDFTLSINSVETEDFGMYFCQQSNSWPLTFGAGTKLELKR	low band
Mu_09E09_VH (SEQ ID NO: 35)_Y50A (antibody, V domains shown) VH: DVKLVESGEGLVKPGGSLKLSCAASGFTFSSYAMSWVRQTPEKRLEWVAAISSGGDYIYYADTVKGRFTISRDNARNTLYLQMSSLKSEDTAMYYCTRDPITGTFAYWGQGTLVTVSA VL: DLQMTQTTSSLSASLGDRVTISCRASQDINNYLNWYQQKPDGTVKLLIYYTSTLHSGVPSRFSGSGSGTDYSLTISNLEQEDIATYFCQQGNTLPWTFGGGTKLEIKR	low band
Mu_09E09_VH (SEQ ID NO: 35)_P100A (antibody, V domains shown) VH: DVKLVESGEGLVKPGGSLKLSCAASGFTFSSYAMSWVRQTPEKRLEWVAYISSGGDYIYYADTVKGRFTISRDNARNTLYLQMSSLKSEDTAMYYCTRDAITGTFAYWGQGTLVTVSA VL: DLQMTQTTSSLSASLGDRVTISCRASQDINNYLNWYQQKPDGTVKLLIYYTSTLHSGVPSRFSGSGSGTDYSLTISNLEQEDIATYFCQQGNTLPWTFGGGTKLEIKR	low band
Mu_02D09_VH (SEQ ID NO: 31)_R104A (antibody, V domains shown) VH: EVQLVESGGGLVKPGGSLTLSCAASGFTFSDYGMHWLRQAPEKGLEWVAYISSGSRAVFFADTVKGRFTISRDNAKNTLFLQMTSLRSDDTAMYYCARDRYDGAGFAYWGQGTLVTVSA VL: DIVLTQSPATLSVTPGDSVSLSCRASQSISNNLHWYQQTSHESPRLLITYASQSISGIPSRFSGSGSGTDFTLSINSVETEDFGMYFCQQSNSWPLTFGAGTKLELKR	middle band
Mu_10F07_VH (SEQ ID NO: 39)_I101A (antibody, V domains shown) VH: DVKLVESGEGLVKPGGSLKLSCAASGFTFSSYAMSWVRQTPEKRLEWVTYISSGGDYFYYADTVKGRFTISRDNARNTLYLQMSSLKSEDTAMYYCTRDPATGTFAYWGQGTLVTVSA VL: DIQMTQTTSSLSASLGDRVTISCRASQDITNYLNWYQQKPDGTVKLLIYYTSTLHSGVPSRFSGSGSGTDFSLTISNLEQEDIATYFCQQGHMLPWTFGGGTKLEIKR	high band
Mu_10F07_VL (SEQ ID NO: 41)_T53A (antibody, V domains shown) VH: DVKLVESGEGLVKPGGSLKLSCAASGFTFSSYAMSWVRQTPEKRLEWVTYISSGGDYFYYADTVKGRFTISRDNARNTLYLQMSSLKSEDTAMYYCTRDPITGTFAYWGQGTLVTVSA VL: DIQMTQTTSSLSASLGDRVTISCRASQDITNYLNWYQQKPDGTVKLLIYYTSALHSGVPSRFSGSGSGTDFSLTISNLEQEDIATYFCQQGHMLPWTFGGGTKLEIKR	high band
Mu_09E09_VH (SEQ ID NO: 35)_Y59A (antibody, V domains shown) VH: DVKLVESGEGLVKPGGSLKLSCAASGFTFSSYAMSWVRQTPEKRLEWVAYISSGGDYIAYADTVKGRFTISRDNARNTLYLQMSSLKSEDTAMYYCTRDPITGTFAYWGQGTLVTVSA VL: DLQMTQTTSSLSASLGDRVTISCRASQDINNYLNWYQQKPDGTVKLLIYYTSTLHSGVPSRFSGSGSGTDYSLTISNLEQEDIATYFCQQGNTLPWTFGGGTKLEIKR	low band
Mu_09E09_VL (SEQ ID NO: 37)_N92A (antibody, V domains shown) VH: DVKLVESGEGLVKPGGSLKLSCAASGFTFSSYAMSWVRQTPEKRLEWVAYISSGGDYIYYADTVKGRFTISRDNARNTLYLQMSSLKSEDTAMYYCTRDPITGTFAYWGQGTLVTVSA VL: DLQMTQTTSSLSASLGDRVTISCRASQDINNYLNWYQQKPDGTVKLLIYYTSTLHSGVPSRFSGSGSGTDYSLTISNLEQEDIATYFCQQGATLPWTFGGGTKLEIKR	middle band
